Attribution: PubChem BioAssay AID485270

assayed-target: Orexin/Hypocretin receptor type 1 (Homo sapiens)
test-details: antagonists of human orexin 1 receptor (OX1R) (AID 485270);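 further: 0% = agonist challenge alone and 100% = reference antagonist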
run-parameters: OX1R-expressing cells, FRET antagonist read-out; at 6.6 µM
The campaign covered roughly 330,000 compounds. About 5,800 (1.8%) were called active. No stated cut-off is given here; in the data, active means inhibition mostly above about 38% (no sharp cut-off); inactive means mostly below about 40%. The sample holds actives, similar compounds and a random draw of the others, so the mix is not that of the screen.
Possible outcomes: 1 = active, 0 = inactive

{"columns": ["compound", "assayed-target", "class-name"],
 "data": [
  ["Cc1c(C#N)c2ncn(CC#N)c(=O)c2n1-c1ccccc1", "Orexin/Hypocretin receptor type 1 (Homo sapiens)", 0],
  ["CC(OC(=O)c1cc2ccccc2[nH]1)C(=O)N(C)c1ccccc1 (stereo not given)", "Orexin/Hypocretin receptor type 1 (Homo sapiens)", 0],
  ["Cn1nnnc1SCC(=O)Nc1nc2ccccc2s1", "Orexin/Hypocretin receptor type 1 (Homo sapiens)", 0],
  ["O=C(/C=C/c1ccco1)Nc1cccc(-c2nc3ccccc3[nH]2)c1", "Orexin/Hypocretin receptor type 1 (Homo sapiens)", 1],
  ["COCc1ccc(C(=O)NC2CC(C)(C)Cc3c2cnn3-c2ccc(C)cc2)o1 (stereo not given)", "Orexin/Hypocretin receptor type 1 (Homo sapiens)", 0],
  ["CCOC(=O)C1CCN(C(=O)CN2C(=O)NC(C)(c3ccc4cc(OC)ccc4c3)C2=O)CC1 (stereo not given)", "Orexin/Hypocretin receptor type 1 (Homo sapiens)", 0],
  ["COc1ccc(C(=O)NC2CC(C)(C)Cc3c2cnn3-c2ccccc2C)o1 (stereo not given)", "Orexin/Hypocretin receptor type 1 (Homo sapiens)", 1],
  ["CC(C)OCCCNc1ncnc2c1[nH]c1ccc(F)cc12", "Orexin/Hypocretin receptor type 1 (Homo sapiens)", 1],
  ["COc1ccc(C(=O)COC(=O)C(O)c2ccccc2)c(OC)c1 (stereo not given)", "Orexin/Hypocretin receptor type 1 (Homo sapiens)", 0],
  ["COc1ccc(-c2nc3cc(C)ccn3c2NC2CCCCC2)cc1SC1CCCCC1", "Orexin/Hypocretin receptor type 1 (Homo sapiens)", 0],
  ["O=C(Cc1ccccc1)NNS(=O)(=O)c1ccc([N+](=O)[O-])cc1", "Orexin/Hypocretin receptor type 1 (Homo sapiens)", 0],
  ["Cc1onc(-c2c(F)cccc2Cl)c1C(=O)OCC(=O)N1C(C)CCCC1C (stereo not given)", "Orexin/Hypocretin receptor type 1 (Homo sapiens)", 0],
  ["Cc1ccc(S(=O)(=O)NNC(=O)Nc2cccc3ccccc23)cc1", "Orexin/Hypocretin receptor type 1 (Homo sapiens)", 0],
  ["O=C(CN1C(=O)NC2(CCOc3ccccc32)C1=O)Nc1cccc([N+](=O)[O-])c1 (stereo not given)", "Orexin/Hypocretin receptor type 1 (Homo sapiens)", 0],
  ["COc1ccccc1/C=C1\\SC(=O)N(CCC(=O)N(C)C2CCS(=O)(=O)C2)C1=O (stereo not given)", "Orexin/Hypocretin receptor type 1 (Homo sapiens)", 0],
  ["COc1cc(Cl)c(C)cc1NC(=O)CSc1nnc(CN2CCCC2)o1", "Orexin/Hypocretin receptor type 1 (Homo sapiens)", 0],
  ["O=C(C[C@H]1C[C@H](C(=O)N2CCOCC2)[C@@]2(CCC3CCCC3)c3[nH]c4ccc(Cl)cc4c3CCN2C1=O)NCc1ccco1", "Orexin/Hypocretin receptor type 1 (Homo sapiens)", 0],
  ["C[C@@H]1CN([C@@H](C)CO)C(=O)c2cc(NC(=O)C3CC3)ccc2O[C@H]1CN(C)C", "Orexin/Hypocretin receptor type 1 (Homo sapiens)", 0],
  ["CC(=O)N1CCCc2cc(S(=O)(=O)N3CCCC(C(=O)NCc4ccc(Cl)cc4)C3)ccc21 (stereo not given)", "Orexin/Hypocretin receptor type 1 (Homo sapiens)", 0],
  ["O=C(NNS(=O)(=O)c1ccc([N+](=O)[O-])cc1)C1CCCCC1", "Orexin/Hypocretin receptor type 1 (Homo sapiens)", 0],
  ["COc1cccc(-c2sc3ccc(OC)cc3c2-c2ccc(OCCN3CCCCC3)cc2)c1", "Orexin/Hypocretin receptor type 1 (Homo sapiens)", 0],
  ["COC(=O)c1ccc(NC(=O)c2cc3c(CO)cnc(C)c3oc2=Nc2cccc(C(N)=O)c2)cc1", "Orexin/Hypocretin receptor type 1 (Homo sapiens)", 0],
  ["CN(C(=O)c1cccc(NC(=O)Cc2ccc([N+](=O)[O-])cc2)c1)C1CCC1", "Orexin/Hypocretin receptor type 1 (Homo sapiens)", 0],
  ["C=CC[C@H](CC(=O)NCCO)C(=O)N[C@@H](COC(=O)[C@@H](CC=C)Cc1ccc(F)cc1)Cc1c[nH]c2ccccc12", "Orexin/Hypocretin receptor type 1 (Homo sapiens)", 0],
  ["O=C(Cc1ccccc1)N1CCN(S(=O)(=O)c2ccc([N+](=O)[O-])cc2)CC1", "Orexin/Hypocretin receptor type 1 (Homo sapiens)", 1],
  ["Cc1cc(C)c(C#N)c(SCc2[nH]nc3c2C(c2ccccc2)C(C#N)=C(N)O3)n1 (stereo not given)", "Orexin/Hypocretin receptor type 1 (Homo sapiens)", 1],
  ["O=C(C1CCCN(S(=O)(=O)c2ccccc2)C1)N1CCN(c2ccc(F)cc2)CC1 (stereo not given)", "Orexin/Hypocretin receptor type 1 (Homo sapiens)", 0],
  ["COc1ccc(CCOC2OC(CO)C(OC(=O)/C=C/c3ccc(O)c(OC)c3)C(O[C@H]3O[C@@H](C)[C@H](O)[C@@H](O)[C@H]3O)C2O)cc1O (stereo not given in full)", "Orexin/Hypocretin receptor type 1 (Homo sapiens)", 0],
  ["Cc1noc(C)c1S(=O)(=O)N(C)C[C@H]1Oc2ccc(NC(=O)C3CC3)cc2C(=O)N([C@H](C)CO)C[C@@H]1C", "Orexin/Hypocretin receptor type 1 (Homo sapiens)", 0],
  ["Cc1ccc(S(=O)(=O)N2CCCC(C(=O)N3CCN(C)CC3)C2)cc1 (stereo not given)", "Orexin/Hypocretin receptor type 1 (Homo sapiens)", 0]
]}

---

assayed-target: Orexin/Hypocretin receptor type 1 (Homo sapiens)
test-details: antagonists of human orexin 1 receptor (OX1R) (AID 485270);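 further: 0% = agonist challenge alone and 100% = reference antagonist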
run-parameters: OX1R-expressing cells, FRET antagonist read-out; at 6.6 µM
Hit rate of the full screen: of about 330,000 compounds, about 5,800 (1.8%) were called active. No stated cut-off is given here; in the data, active means inhibition mostly above about 38% (no sharp cut-off); inactive means mostly below about 40%. The sample as a whole holds a higher share of actives than the screen did.
Possible outcomes: yes (1) = active, no (0) = inactive

{"columns": ["compound", "class-name"],
 "data": [
  ["CC(CNC(=O)Cn1cnc2c(OCc3ccccc3)ncnc21)c1ccccc1 (stereo not drawn)", "no (0)"],
  ["N#Cc1c(NC(=O)CCCN2C(=O)c3ccccc3C2=O)oc(-c2ccccc2)c1-c1ccccc1", "yes (1)"],
  ["COc1ccc(-c2nnc(NC(=O)CS(=O)(=O)c3ccc(Cl)cc3)o2)c(OC)c1", "yes (1)"],
  ["O=C(CCN1C(=O)c2ccccc2C1=O)Nc1ccncc1", "no (0)"],
  ["CCc1ccc(CN(C)C(=O)CCc2nnc(-c3ccc(-c4ccccc4)cc3)o2)nc1", "no (0)"],
  ["Cc1nn(-c2ccccc2)c(Cl)c1/C=N/NC(=O)c1nn(C)cc1[N+](=O)[O-]", "no (0)"],
  ["CCn1c(Cc2cccs2)nnc1SCC(=O)c1ccc(C)cc1", "no (0)"],
  ["c1ccc2sc(NN=C3CCCC3)nc2c1", "no (0)"],
  ["O=C(NCc1cccnc1)c1cc(S(=O)(=O)N2CCOCC2)c(Cl)cc1Cl", "no (0)"],
  ["COc1ccc(CN2C(CC(=O)Nc3cccnc3)c3ccc(C(F)(F)F)cc3S2(=O)=O)cc1 (stereo not drawn)", "no (0)"],
  ["COc1cccc2sc3cc(NCC[C@@H]4CCCN4C)ccc3c(=O)c12", "no (0)"],
  ["COc1ccc(C(=O)OCc2cc(=O)n3ccsc3n2)cc1F", "no (0)"],
  ["Cc1ccnc(Nc2nc3ccccc3s2)n1", "yes (1)"],
  ["C[C@H](CO)N1C[C@H](C)[C@@H](CN(C)Cc2ccc(-c3ccccc3)cc2)Oc2ccc(NC(=O)Cn3cnnn3)cc2C1=O", "no (0)"],
  ["Cc1ccc(CNC(=O)CCNS(=O)(=O)c2cccc3nonc23)cc1", "no (0)"],
  ["COc1cc(/C=C/C(=O)Nc2ccc(OC)c(S(=O)(=O)N3CCOCC3)c2)ccc1OCC#N", "no (0)"],
  ["CC(=O)N1CCN(C(=O)c2cccc(S(=O)(=O)Nc3ccc(C)cc3)c2)CC1", "no (0)"],
  ["CCn1c(SCC(=O)c2ccc(Cl)s2)nnc1-c1cccs1", "no (0)"],
  ["CCc1noc(C)c1C(=O)Nc1nc2ccc(OC)cc2s1", "no (0)"],
  ["Cc1nn(C)cc1/C=N/NC(=O)c1sc2ccccc2c1Cl", "yes (1)"],
  ["Cc1ccc(C2(C)NC(=O)N(CC(=O)N3CC(=O)Nc4ccccc43)C2=O)cc1 (stereo not drawn)", "no (0)"],
  ["CCc1cccc2c(=O)c(C(=O)NCCCOC)c[nH]c12", "no (0)"],
  ["CSc1ncccc1C(=O)Nc1cccc(S(=O)(=O)N2CCOCC2)c1", "no (0)"],
  ["O=C(NN=C1CCC(=NNC(=O)c2cccnc2)CC1)c1cccnc1", "no (0)"],
  ["Cc1ccnc(-n2sc3ccccc3c2=O)n1", "no (0)"],
  ["Cc1c(Cl)cnc(NC(=O)COC(=O)C2CCCC2)c1Cl", "no (0)"],
  ["Cc1cccn2c(=O)c3cc(C(=O)NCCN4CCOCC4)c(=N)n(Cc4cccnc4)c3nc12", "yes (1)"],
  ["C[C@@H]1C(c2ccc(F)cc2)=NN(c2ccc(Br)cc2)[C@H]1C(=O)N1CCOC1=O", "no (0)"],
  ["Cc1noc(C)c1C(=O)OC(C)C(=O)Nc1ccc2c(c1)OCO2 (stereo not drawn)", "no (0)"],
  ["Cc1ccc(N(CC(=O)Nc2cc(C)cc(C)c2)S(=O)(=O)c2cccc3nonc23)cc1", "yes (1)"],
  ["COCCNC(=S)N/N=C/c1c(C)[nH]c2ccccc12", "no (0)"],
  ["O=[N+]([O-])c1cccc2ncccc12", "no (0)"],
  ["COc1cccc(CNC(=O)COC(=O)CN2C(=O)NC3(CCCCC3C)C2=O)c1 (stereo not drawn)", "no (0)"],
  ["O=C(N/N=C/c1sc(N2CCCCC2)nc1-c1cccs1)c1cccnc1", "yes (1)"],
  ["CN1CN(C)c2ccc([N+](=O)[O-])c3cccc1c23", "yes (1)"],
  ["O=C(CSc1nnc(-c2ccncc2)o1)Nc1cccc(Cl)c1", "no (0)"],
  ["CCn1c(SCC(=O)c2ccc3ccccc3c2)nnc1-c1cccs1", "yes (1)"],
  ["COc1ccc(CNC(=O)CNC(=O)c2sc3ccccc3c2Cl)cc1OC", "no (0)"]
]}
